Biological target: T1, human six-transmembrane epithelial antigen of prostate 2 (STEAP2) (human, UniProt Q8NFT2 1-490)
T1 construct: also called hSTEAP2
T1 sequence: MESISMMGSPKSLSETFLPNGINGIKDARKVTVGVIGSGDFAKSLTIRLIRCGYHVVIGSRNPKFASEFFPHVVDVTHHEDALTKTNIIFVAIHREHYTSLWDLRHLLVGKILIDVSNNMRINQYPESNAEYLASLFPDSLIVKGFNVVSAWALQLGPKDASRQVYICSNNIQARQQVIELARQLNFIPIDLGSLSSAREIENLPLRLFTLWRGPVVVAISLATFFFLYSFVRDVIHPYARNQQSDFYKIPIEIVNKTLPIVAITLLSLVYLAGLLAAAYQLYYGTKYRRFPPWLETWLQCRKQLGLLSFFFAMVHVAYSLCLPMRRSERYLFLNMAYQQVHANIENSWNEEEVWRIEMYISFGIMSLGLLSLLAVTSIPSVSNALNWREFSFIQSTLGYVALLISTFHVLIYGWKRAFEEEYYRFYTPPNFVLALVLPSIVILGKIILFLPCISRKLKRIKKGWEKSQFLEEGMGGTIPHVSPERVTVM
Assay: FACS on HEK293 cells (low STEAP2), MFI fold above unstained, average at 100-300 nM antibody
The binders listed here are annotated with their Avg F.A.B (fold above background).
Give the value, in units of fold above background, as a plain number.

Reference set, count: 2
H1H11162N (antibody, human IgG1, V domains shown) VH: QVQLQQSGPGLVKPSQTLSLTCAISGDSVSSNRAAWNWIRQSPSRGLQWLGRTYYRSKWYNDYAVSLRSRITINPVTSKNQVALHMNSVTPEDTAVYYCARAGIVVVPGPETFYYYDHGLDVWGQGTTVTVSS VL: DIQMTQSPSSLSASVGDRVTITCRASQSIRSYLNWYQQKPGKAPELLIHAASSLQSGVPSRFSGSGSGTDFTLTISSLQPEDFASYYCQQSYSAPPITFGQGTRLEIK; 10
H1H7811N (antibody, human IgG1, V domains shown) VH: QVQLVESGGGVVQPGRSLRLSCAVSGFTSSTYGMNWVRQAPGKGLEWVAVISFDGSNKYYADSVKGRFTISRDNSKNTLYLQMSSLRPEDTAVYYCARGRYFDLWGRGTLVTVSS VL: DTQMTQSPSTLSASVGDRVTITCRASQIISSWLAWYQQKPGKAPKLLIYKASSLASGVPSRFSGSGSGTEFTLTISSLQPDDFATYYCQQYKSYSYTFGQGTNLEIK; 5

We now examine a further binder.
Exercise: Give me measured Avg F.A.B (fold above background), please, for this binder: H1H7809N (antibody, human IgG1, V domains shown) VH: QVQLVESGGGVVQPGRSLGLSCAASGFTFSSYGMHWVRQAPGKGLEWVAVIWYDGSNKYYVDSVKGRFTISRDNSKNTLYLQMNSLRAEDTAVYYCAREGLRFLENYYYYYGMDVWGQGTTVTVSS VL: EIVLTQSPGTLSLSPGERATLSCRASQSISSTYLAWYQQRPGQAPRLLIYGASSRATGIPDRFSGSGSGTDFTLTISRLEPEDFAVYYCQQYGTSPYTFGQGTKLEIK
Solution: 31

Where these numbers come from: patent US20200376136A1
